These measurements were taken from patent US12194050B2.

Please provide measured EC50 for the entries that follow.
Molecular target: human α7 nAchR (Homo sapiens (Human), UniProt P36544)
Sequence (P36544 23-502): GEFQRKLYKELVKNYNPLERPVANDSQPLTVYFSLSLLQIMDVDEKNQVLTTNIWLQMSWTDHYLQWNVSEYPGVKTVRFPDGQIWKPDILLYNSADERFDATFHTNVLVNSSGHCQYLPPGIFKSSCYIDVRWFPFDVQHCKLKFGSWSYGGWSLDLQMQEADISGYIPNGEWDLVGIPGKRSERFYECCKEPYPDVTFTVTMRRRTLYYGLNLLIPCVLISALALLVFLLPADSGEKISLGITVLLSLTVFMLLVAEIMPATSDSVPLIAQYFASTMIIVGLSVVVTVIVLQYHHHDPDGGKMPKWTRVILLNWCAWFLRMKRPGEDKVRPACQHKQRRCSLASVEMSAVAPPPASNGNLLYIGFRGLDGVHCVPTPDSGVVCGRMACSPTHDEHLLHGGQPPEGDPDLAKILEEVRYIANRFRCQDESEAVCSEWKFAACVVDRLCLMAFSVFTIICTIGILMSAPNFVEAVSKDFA
Test: Human α7 nicotinic acetylcholine receptor [Ca2+]i assay (PAM, Ca2+ fluorometry)
Conditions: Flp-In 293 cells expressing human α7 nAchR and human RIC-3; in presence of saturating agonist (mostly PNU-282987, 1 μM)
Numeric answer only, unit µM assumed.

stdin: # lookup: EC50 of CCN1C(C(=O)Nc2ccc(Cl)c(OC)c2)=CC(c2ccc(OC)c(OC)c2)=NS1(=O)=O
stdout: 0.15

stdin: # lookup: EC50 of CCc1ccc(NC(=O)C2=CC(c3ccc(OC)c(OC)c3)=NS(=O)(=O)N2C)cc1
stdout: 1.3

stdin: # lookup: EC50 of CN1C(C(=O)Nc2cccc(C(F)(F)F)n2)=CC(C2CCC(F)(F)CC2)=NS1(=O)=O
stdout: 0.47

stdin: # lookup: EC50 of CC(C)N1C(C(=O)Nc2cccc(C(F)(F)F)n2)=CC(C2CCC(F)(F)CC2)=NS1(=O)=O
stdout: 0.22

stdin: # lookup: EC50 of CCN1C(C(=O)Nc2ccc(F)c(C)n2)=CC([C@H]2CC[C@H](C(F)(F)F)CC2)=NS1(=O)=O
stdout: 1.5

stdin: # lookup: EC50 of CCN1C(C(=O)Nc2cccc(C(F)(F)F)c2)=CC([C@H]2CC[C@H](C(F)(F)F)CC2)=NS1(=O)=O
stdout: 1.1

stdin: # lookup: EC50 of CCCN1C(C(=O)Nc2cccc(C)c2)=CC(c2ccc(OC)c(OC)c2)=NS1(=O)=O
stdout: 0.08

====

Target: human α7 nAchR (Homo sapiens (Human), UniProt P36544)
Assay: Human α7 nicotinic acetylcholine receptor [Ca2+]i assay (PAM, Ca2+ fluorometry)
Settings: Flp-In 293 cells expressing human α7 nAchR and human RIC-3; in presence of saturating agonist (mostly PNU-282987, 1 μM)
measure name: EC50
Answers without a unit are incomplete; give the number and then its unit.

stdin: # lookup: EC50 of COc1ccc(C2=NS(=O)(=O)N(C)C(C(=O)Nc3ccc(C)c(Cl)c3)=C2)cc1OC
stdout: 340 nM

stdin: # lookup: EC50 of COc1cccc(NC(=O)C2=CC(c3ccc(OC)c(OC)c3)=NS(=O)(=O)N2C)c1
stdout: 670 nM

stdin: # lookup: EC50 of CCCN1C(C(=O)Nc2cccc(C(F)(F)F)n2)=CC(c2ccc(OC)c(Cl)c2)=NS1(=O)=O
stdout: 65 nM

stdin: # lookup: EC50 of CC[C@H](C)N1C(C(=O)Nc2cccc(C(F)(F)F)n2)=CC(c2ccc(OC)c(OC)c2)=NS1(=O)=O
stdout: 120 nM

stdin: # lookup: EC50 of CCN1C(C(=O)Nc2cccc(C(C)(F)F)n2)=CC([C@H]2CC[C@H](C(F)(F)F)CC2)=NS1(=O)=O
stdout: 790 nM

stdin: # lookup: EC50 of CCN1C(C(=O)Nc2cccc(C(F)(F)F)n2)=CC(c2ccc(OC)c(C(F)(F)F)c2)=NS1(=O)=O
stdout: 10 nM

stdin: # lookup: EC50 of CC(C)N1C(C(=O)Nc2cccc(F)n2)=CC(C2CCC(F)(F)CC2)=NS1(=O)=O
stdout: 580 nM

stdin: # lookup: EC50 of CCN1C(C(=O)Nc2ccc(C(F)(F)F)cn2)=CC([C@H]2CC[C@H](C(F)(F)F)CC2)=NS1(=O)=O
stdout: 1300 nM

stdin: # lookup: EC50 of CCCN1C(C(=O)Nc2cccc(C(F)(F)F)c2)=CC(c2ccc(OC)c(C)c2)=NS1(=O)=O
stdout: 100 nM

stdin: # lookup: EC50 of CCCCn1cc(NC(=O)C2=CC(c3ccc(OC)c(OC)c3)=NS(=O)(=O)N2C)cn1
stdout: 2900 nM

stdin: # lookup: EC50 of O=C(Nc1ccnc(C(F)(F)F)n1)C1=CC([C@H]2CC[C@H](C(F)(F)F)CC2)=NS(=O)(=O)N1CC1CC1
stdout: 130 nM

stdin: # lookup: EC50 of COc1ccc(C2=NS(=O)(=O)N(C)C(C(=O)Nc3cccc(Cl)c3)=C2)cc1OC
stdout: 940 nM

stdin: # lookup: EC50 of Cc1cccc(NC(=O)C2=CC(c3ccc4c(c3)c(C)nn4C)=NS(=O)(=O)N2C)c1
stdout: 230 nM

stdin: # lookup: EC50 of CCN1C(C(=O)Nc2cccc(C(F)(F)F)c2)=CC(c2ccc(C(F)(F)F)c(OC)c2)=NS1(=O)=O
stdout: 330 nM

stdin: # lookup: EC50 of COc1ccc(C2=NS(=O)(=O)N(C)C(C(=O)Nc3cc(C)ccn3)=C2)cc1OC
stdout: 2900 nM

====

Target: human α7 nAchR (Homo sapiens (Human), UniProt P36544)
Assay: Human α7 nicotinic acetylcholine receptor [Ca2+]i assay (PAM, Ca2+ fluorometry)
Conditions: Flp-In 293 cells expressing human α7 nAchR and human RIC-3; in presence of saturating agonist (mostly PNU-282987, 1 μM)
measure name: EC50 (µM)
Numeric answer only, unit µM assumed.

stdin: human α7 nAchR (Homo sapiens (Human), UniProt P36544) / EC50 / COc1ccc(C2=NS(=O)(=O)N(C)C(C(=O)Nc3ccc(C)cc3)=C2)cc1OC [Example 14] : value?
stdout: 1.4

stdin: human α7 nAchR (Homo sapiens (Human), UniProt P36544) / EC50 / COc1ccc(C2=NS(=O)(=O)N(C)C(C(=O)Nc3ccn4nccc4c3)=C2)cc1OC [Example 7] : value?
stdout: 2

stdin: human α7 nAchR (Homo sapiens (Human), UniProt P36544) / EC50 / CCN1C(C(=O)Nc2cccc(C(F)(F)F)n2)=CC([C@H]2CC3C[C@@H]3C2)=NS1(=O)=O (some centres unmarked) [Example 71] : value?
stdout: 0.14

stdin: human α7 nAchR (Homo sapiens (Human), UniProt P36544) / EC50 / CCN1C(C(=O)Nc2cccc(C#N)n2)=CC([C@H]2CC[C@H](C(F)(F)F)CC2)=NS1(=O)=O [Example 76] : value?
stdout: 0.085

stdin: human α7 nAchR (Homo sapiens (Human), UniProt P36544) / EC50 / CCN1C(C(=O)Nc2cccc(C)c2)=CC(c2ccc(OC)c(C)c2)=NS1(=O)=O [Example 45] : value?
stdout: 0.21

stdin: human α7 nAchR (Homo sapiens (Human), UniProt P36544) / EC50 / C=CCN1C(C(=O)Nc2ccc(OC)cc2)=CC(c2ccc(OC)c(OC)c2)=NS1(=O)=O [Example 120] : value?
stdout: 0.12

stdin: human α7 nAchR (Homo sapiens (Human), UniProt P36544) / EC50 / COc1ccc(C2=NS(=O)(=O)N(C(C)C)C(C(=O)Nc3cc(Cl)ccn3)=C2)cc1OC [Example 110] : value?
stdout: 0.64

stdin: human α7 nAchR (Homo sapiens (Human), UniProt P36544) / EC50 / COc1ccc(NC(=O)C2=CC(c3ccc(OC)c(OC)c3)=NS(=O)(=O)N2C(C)C)cc1 [Example 108] : value?
stdout: 1.3

====

Molecular target: human α7 nAchR (Homo sapiens (Human))
Test: Human α7 nicotinic acetylcholine receptor [Ca2+]i assay (PAM, Ca2+ fluorometry)
Details: Flp-In 293 cells expressing human α7 nAchR and human RIC-3; in presence of saturating agonist (mostly PNU-282987, 1 μM)
measure name: EC50 (µM)
Numeric answer only, unit µM assumed.

stdin: human α7 nAchR (Homo sapiens (Human)) / EC50 / CCCN1C(C(=O)Nc2cccc(C(F)(F)F)c2)=CC(c2ccc(OC)c(Cl)c2)=NS1(=O)=O : value?
stdout: 0.15

stdin: human α7 nAchR (Homo sapiens (Human)) / EC50 / COc1ccc(C2=NS(=O)(=O)N(CC3CC3)C(C(=O)Nc3cccc(C)c3)=C2)cc1OC : value?
stdout: 0.11

stdin: human α7 nAchR (Homo sapiens (Human)) / EC50 / CCCN1C(C(=O)Nc2cccc(C(F)(F)F)c2)=CC(c2ccc(OC)c(C(F)(F)F)c2)=NS1(=O)=O : value?
stdout: 0.085

stdin: human α7 nAchR (Homo sapiens (Human)) / EC50 / COCCN1C(C(=O)Nc2cccc(C(F)(F)F)n2)=CC(C2CCC(F)(F)CC2)=NS1(=O)=O : value?
stdout: 0.96

stdin: human α7 nAchR (Homo sapiens (Human)) / EC50 / O=C(Nc1cccc(C(F)(F)F)n1)C1=CC([C@H]2CC[C@H](C(F)(F)F)CC2)=NS(=O)(=O)N1CC1CC1 : value?
stdout: 0.07

stdin: human α7 nAchR (Homo sapiens (Human)) / EC50 / CCN1C(C(=O)Nc2cccc(F)n2)=CC(C2CCCCC2)=NS1(=O)=O : value?
stdout: 1.1

stdin: human α7 nAchR (Homo sapiens (Human)) / EC50 / CCN1C(C(=O)Nc2ccnc(F)n2)=CC([C@H]2CC[C@H](C(F)(F)F)CC2)=NS1(=O)=O : value?
stdout: 0.32

stdin: human α7 nAchR (Homo sapiens (Human)) / EC50 / CCN1C(C(=O)Nc2cccc(C(F)(F)F)n2)=CC(C2CCCCC2)=NS1(=O)=O : value?
stdout: 0.39

stdin: human α7 nAchR (Homo sapiens (Human)) / EC50 / CC(C)N1C(C(=O)Nc2cccc(C(F)(F)F)n2)=CC([C@H]2CC[C@H](C(F)(F)F)CC2)=NS1(=O)=O : value?
stdout: 0.12

stdin: human α7 nAchR (Homo sapiens (Human)) / EC50 / CCCN1C(C(=O)Nc2cccc(C(F)(F)F)n2)=CC(c2ccc(OC)c(OC)c2)=NS1(=O)=O : value?
stdout: 0.045

stdin: human α7 nAchR (Homo sapiens (Human)) / EC50 / COc1ccc(C2=NS(=O)(=O)N(C)C(C(=O)Nc3cccc(C(F)(F)F)c3)=C2)cc1OC : value?
stdout: 0.23

stdin: human α7 nAchR (Homo sapiens (Human)) / EC50 / CCN1C(C(=O)Nc2ccc(C)c(C)c2)=CC(c2ccc(OC)c(OC)c2)=NS1(=O)=O : value?
stdout: 0.13

stdin: human α7 nAchR (Homo sapiens (Human)) / EC50 / CCN1C(C(=O)Nc2cccc(C(F)(F)F)c2)=CC(C2CCC(F)(F)CC2)=NS1(=O)=O : value?
stdout: 0.81

stdin: human α7 nAchR (Homo sapiens (Human)) / EC50 / CN1C(C(=O)Nc2cccc(C(F)(F)F)n2)=CC([C@H]2CC[C@H](C(F)(F)F)CC2)=NS1(=O)=O : value?
stdout: 0.48

stdin: human α7 nAchR (Homo sapiens (Human)) / EC50 / CCN1C(C(=O)Nc2cccc(F)n2)=CC([C@H]2CC3C[C@@H]3C2)=NS1(=O)=O (stereo partly drawn) : value?
stdout: 0.43

stdin: human α7 nAchR (Homo sapiens (Human)) / EC50 / COc1ccc(C2=NS(=O)(=O)N(C)C(C(=O)Nc3cccc(C)n3)=C2)cc1OC : value?
stdout: 1.4

stdin: human α7 nAchR (Homo sapiens (Human)) / EC50 / CCN1C(C(=O)Nc2ccc(OC)cc2)=CC(c2ccc(OC)c(C)c2)=NS1(=O)=O : value?
stdout: 0.11

stdin: human α7 nAchR (Homo sapiens (Human)) / EC50 / COc1cc(C2=NS(=O)(=O)N(C)C(C(=O)Nc3cccc(C)c3)=C2)ccc1Cl : value?
stdout: 1.2

stdin: human α7 nAchR (Homo sapiens (Human)) / EC50 / COc1ccc(C2=NS(=O)(=O)N(CC3CC3)C(C(=O)Nc3cccc(C(F)(F)F)c3)=C2)cc1C : value?
stdout: 0.12

stdin: human α7 nAchR (Homo sapiens (Human)) / EC50 / COCCN1C(C(=O)Nc2cccc(F)n2)=CC(C2CCC(F)(F)CC2)=NS1(=O)=O : value?
stdout: 1.8

stdin: human α7 nAchR (Homo sapiens (Human)) / EC50 / CCN1C(C(=O)Nc2cccc(F)n2)=CC([C@H]2CC[C@H](C(F)(F)F)CC2)=NS1(=O)=O : value?
stdout: 0.1

stdin: human α7 nAchR (Homo sapiens (Human)) / EC50 / CCN1C(C(=O)Nc2cccc(C(F)(F)F)c2)=CC(c2ccc(OC)c(OC)c2)=NS1(=O)=O : value?
stdout: 0.44

stdin: human α7 nAchR (Homo sapiens (Human)) / EC50 / COc1ccc(C2=NS(=O)(=O)N([C@@H]3CCOC3)C(C(=O)Nc3cccc(C(F)(F)F)n3)=C2)cc1OC : value?
stdout: 0.13

stdin: human α7 nAchR (Homo sapiens (Human)) / EC50 / CCCN1C(C(=O)Nc2cccc(C(F)(F)F)n2)=CC(c2ccc(OC)c(C(F)(F)F)c2)=NS1(=O)=O : value?
stdout: 0.03

stdin: human α7 nAchR (Homo sapiens (Human)) / EC50 / CCN1C(C(=O)Nc2cccc(C(F)(F)F)c2)=CC(c2ccc(C)c(OC)c2)=NS1(=O)=O : value?
stdout: 0.49

stdin: human α7 nAchR (Homo sapiens (Human)) / EC50 / O=C(Nc1cccc(C(F)(F)F)n1)C1=CC(C2CCC(F)(F)CC2)=NS(=O)(=O)N1CC1CC1 : value?
stdout: 0.08

stdin: human α7 nAchR (Homo sapiens (Human)) / EC50 / CCN1C(C(=O)Nc2cccc(C)c2)=CC(c2ccc(OC)c(C(F)(F)F)c2)=NS1(=O)=O : value?
stdout: 0.06

stdin: human α7 nAchR (Homo sapiens (Human)) / EC50 / COc1ccc(C2=NS(=O)(=O)N(CC3CC3)C(C(=O)Nc3cccc(Cl)c3)=C2)cc1OC : value?
stdout: 0.37

stdin: human α7 nAchR (Homo sapiens (Human)) / EC50 / CCN1C(C(=O)Nc2cccc(OC)c2)=CC(c2ccc(OC)c(C(F)(F)F)c2)=NS1(=O)=O : value?
stdout: 0.045

stdin: human α7 nAchR (Homo sapiens (Human)) / EC50 / CCN1C(C(=O)Nc2cccc(C(F)(F)F)n2)=CC([C@H]2CC[C@H](OC)CC2)=NS1(=O)=O : value?
stdout: 1.1
